test system: 454973-116-R2-J3-PDC complex spheroid viability; assay: Anticancer human tumor 454973-116-R2-J3-PDC patient-derived pancreatic carcinoma cell line growth inhibition [POLQ]; settings: second compound 10 µM; first compound 0.1 µM; active = viability on the fitted dose curve at most 10% of control; inactive = the rest;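 also: spheroids exposed to drugs for seven days before measurement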
API: response.call in active, inactive

Q: Tell me the recorded outcome of this test for CC1COCCN1c1cc(C2(O)CC3CCC(C2)O3)c2cnn(-c3ccn[nH]3)c2n1 (stereo not given) + Nc1ccc(C#CCN(C(=O)Cc2ncc(C(F)(F)F)cc2C(F)(F)F)c2ccc(F)cc2)nn1 .
A: inactive

Q: Tell me the recorded outcome of this test for COc1cccc(OCCCN)c1-c1cc(Nc2cnc(C#N)cn2)n[nH]1 + Cc1cccc(N(C)C(=O)C2C(O)CCN2c2nc(C)cc(C(F)(F)F)c2C#N)c1 .
A: active

Q: Tell me the recorded outcome of this test for COc1cc(C2c3cc4c(cc3C(OC3OC5COC(C)OC5C(O)C3O)C3COC(=O)C23)OCO4)cc(OC)c1O (stereo not given) + COC1C(OC(N)=O)C(O)C(Oc2ccc3c(O)c(NC(=O)c4ccc(O)c(CC=C(C)C)c4)c(=O)oc3c2C)OC1(C)C .
A: inactive

Q: Tell me the recorded outcome of this test for COc1cc(C2c3cc4c(cc3C(OC3OC5COC(C)OC5C(O)C3O)C3COC(=O)C23)OCO4)cc(OC)c1O (stereo not given) + Nc1ccc(C#CCN(C(=O)Cc2ncc(C(F)(F)F)cc2C(F)(F)F)c2ccc(F)cc2)nn1 .
A: inactive

Q: Tell me the recorded outcome of this test for O=C(Nc1ccc(O)c(NS(=O)(=O)c2ccc(F)cc2)c1)c1ccc(-c2ccccc2)cc1 + Nc1ccc(C#CCN(C(=O)Cc2ncc(C(F)(F)F)cc2C(F)(F)F)c2ccc(F)cc2)nn1 .
A: inactive
